parameter: melting point (°C)

{"smiles.record": "COC(=O)c1c(NC(C)=O)c(-c2noc(-c3ccc([N+](=O)[O-])cc3)n2)nn1-c1cccc(OC)c1", "melting point (°C)": 248}
{"smiles.record": "COC(=O)c1c(NC(C)=O)c(-c2noc(-c3ccc(Br)cc3)n2)nn1-c1cccc(OC)c1", "melting point (°C)": 224}
{"smiles.record": "COC(=O)c1c(NC(C)=O)c(-c2noc(-c3ccc(N(C)C)cc3)n2)nn1-c1cccc(OC)c1", "melting point (°C)": 196}
